Here we gather pIC50 data for SIK3 (Homo sapiens, UniProt Q9Y2K2) reported by several publications.
pIC50: −log10 of the molar value.

- Compound: "CCn1cc(-c2cc(C#N)c3c(-c4cc(OC)c(C(=O)N[C@@H]5CC5(F)F)c(OC(F)F)c4)n(C)nc3c2)cn1"
  pIC50: 9.22
- Compound: "COc1cc(-c2cnc3cc(OCCCN4CCC5(CC4)CNC(=O)O5)ccn23)cc(OC(F)F)c1C(=O)NC1CC1"
  pIC50: "8.00 to 11.00"
- Compound: "COc1cc(-c2cnc3cc(OCC(N)C4CCCO4)ccn23)cc(OC(F)F)c1C(=O)NC1CC1 (centres unmarked)"
  pIC50: "8.00 to 11.00"
- Compound: "COc1cc(-c2cnc3cc(OCC4(C)CN(C)C4)ccn23)cc(OC(F)F)c1C(=O)NC1CC1"
  pIC50: "8.00 to 11.00"
- Compound: "CS(=O)(=O)N1CCC(n2cc(-c3cnc4[nH]cc(-c5ccc6c(c5)OC(F)(F)O6)c4c3)cn2)CC1"
  pIC50: "< 6.00"

So, `CCOc1cc(-c2cnn(C)c2)cc2nn(C)c(-c3cc(OC)c(C(=O)N4CC(O)(C(F)(F)F)C4)c(OC(F)F)c3)c12` ? Its pIC50 was 7.98

response.value for `COc1cc(-c2c3c(OC)cc(-c4cnn(C)c4)cc3nn2C)cc(OC(F)F)c1C(=O)N[C@@H]1C[C@@H]1F` (field: pIC50) = 8.11

Entry under test: `COc1cc(-c2c3c(C#N)cc(-c4cnn(C[C@H](C)O)c4)cc3nn2C)cc(OC(F)F)c1C(=O)N[C@@H]1CC1(F)F` . Its pIC50 was 8.64

Per the record, `CCCn1cc(-c2cc(C#N)c3c(-c4cc(OC)c5c(c4)C(C)(C)CNC5=O)n(C)nc3c2)cn1` has pIC50 of 7.99

For `COc1cc(-c2cnc3cc(OC[C@@H]4CCN(CCO)C4)ccn23)cc(OC(F)F)c1C(=O)NC1CC1` the compound record lists pIC50 as 8.00 to 11.00

For reference, reported pIC50 for `COc1cc(-c2cnc3cc(OCCN(C)c4ncccn4)ccn23)cc(OC(F)F)c1C(=O)NC1CC1` stands at 8.00 to 11.00

// recorded pIC50 for COc1cc(-c2c3c(C#N)cc(-c4cnn(CC(F)F)c4)cc3nn2C)cc2c1C(=O)NC[C@@H]2C (single isomer, unassigned) : 8.10
